# CC50 annotations
System: HEL cells
procedureDetails: Cytotoxicity in mock-infected HEL cells (MTS)
Format: cell-based, human
runParameters: mock-infected HEL cells, MTS, mean of 2–3 tests
assayMetric: CC50

entrySmiles	testTarget	reported
CC(=O)N[C@H]1[C@H](O[C@@H]2c3ccc(c(Cl)c3)Oc3cc4cc(c3O)Oc3ccc(cc3Cl)C[C@H]3NC(=O)[C@H](NC(=O)c5cc(OCCCSCCNC(=N)N)c(OCCCSCCNC(=N)N)c(OCCCSCCNC(=N)N)c5)c5ccc(O)c(c5)Oc5cc(O)cc(c5)[C@H](NC3=O)C(=O)N[C@H]4C(=O)N[C@H]3C(=O)N[C@@H]2C(=O)N[C@H](C(=O)O)c2cc(O)cc(O)c2-c2cc3ccc2O)O[C@H](CO)[C@@H](O)[C@@H]1O	HEL cells	> 100 µM
CC(=O)N[C@H]1[C@H](O[C@@H]2c3ccc(c(Cl)c3)Oc3cc4cc(c3O)Oc3ccc(cc3Cl)C[C@H]3NC(=O)[C@H](NC(=O)CCC(F)(F)C(F)(F)C(F)(F)C(F)(F)C(F)(F)C(F)(F)C(F)(F)C(F)(F)F)c5ccc(O)c(c5)Oc5cc(O)cc(c5)[C@H](NC3=O)C(=O)N[C@H]4C(=O)N[C@H]3C(=O)N[C@@H]2C(=O)N[C@H](C(=O)O)c2cc(O)cc(O)c2-c2cc3ccc2O)O[C@H](CO)[C@@H](O)[C@@H]1O	HEL cells	> 100 µM
CC(=O)N[C@H]1[C@H](O[C@@H]2c3ccc(c(Cl)c3)Oc3cc4cc(c3O)Oc3ccc(cc3Cl)C[C@H]3NC(=O)[C@H](NC(=N)N)c5ccc(O)c(c5)Oc5cc(O)cc(c5)[C@H](NC3=O)C(=O)N[C@H]4C(=O)N[C@H]3C(=O)N[C@@H]2C(=O)N[C@H](C(=O)O)c2cc(O)cc(O)c2-c2cc3ccc2O)O[C@H](CO)[C@@H](O)[C@@H]1O	HEL cells	> 100 µM

---

Test system: S. haemolyticus
procedureDetails: MIC, broth microdilution
Type: cell-based
runParameters: Staphylococcus haemolyticus, S.haemolyticus DALB_R4, mecA; read-out: MIC value
assayMetric: MIC (µg/mL)

entrySmiles	testTarget	assayMetric	reported
CC(=O)N[C@H]1[C@H](O[C@@H]2c3ccc(c(Cl)c3)Oc3cc4cc(c3O)Oc3ccc(cc3Cl)C[C@H]3NC(=O)[C@H](NC(=O)c5cc(OCCCSCCNC(=N)N)c(OCCCSCCNC(=N)N)c(OCCCSCCNC(=N)N)c5)c5ccc(O)c(c5)Oc5cc(O)cc(c5)[C@H](NC3=O)C(=O)N[C@H]4C(=O)N[C@H]3C(=O)N[C@@H]2C(=O)N[C@H](C(=O)O)c2cc(O)cc(O)c2-c2cc3ccc2O)O[C@H](CO)[C@@H](O)[C@@H]1O	S. haemolyticus	MIC	2

---

# MIC annotations
Tested on: S. aureus
procedureDetails: MIC, broth microdilution
Assay type: cell-based
runParameters: Staphylococcus aureus, MRSA, read-out: Average MIC value, S. aureus CA-MRSA, 1 strain
assayMetric: MIC (µg/mL)

compound	unitOfMeasurement	reported
CC(=O)N[C@H]1[C@H](O[C@@H]2c3ccc(c(Cl)c3)Oc3cc4cc(c3O)Oc3ccc(cc3Cl)C[C@H]3NC(=O)[C@H](NC(=O)c5cc(OCCCSCCNC(=N)N)c(OCCCSCCNC(=N)N)c(OCCCSCCNC(=N)N)c5)c5ccc(O)c(c5)Oc5cc(O)cc(c5)[C@H](NC3=O)C(=O)N[C@H]4C(=O)N[C@H]3C(=O)N[C@@H]2C(=O)N[C@H](C(=O)O)c2cc(O)cc(O)c2-c2cc3ccc2O)O[C@H](CO)[C@@H](O)[C@@H]1O [Compound 7]	µg/mL	1
CC(=O)N[C@H]1[C@H](O[C@@H]2c3ccc(c(Cl)c3)Oc3cc4cc(c3O)Oc3ccc(cc3Cl)C[C@H]3NC(=O)[C@H](n5cc(COCCOCCCC(F)(F)C(F)(F)C(F)(F)C(F)(F)F)nn5)c5ccc(O)c(c5)Oc5cc(O)cc(c5)[C@H](NC3=O)C(=O)N[C@H]4C(=O)N[C@H]3C(=O)N[C@@H]2C(=O)N[C@H](C(=O)O)c2cc(O)cc(O)c2-c2cc3ccc2O)O[C@H](CO)[C@@H](O)[C@@H]1O [Compound 2]	µg/mL	0.25
CC(=O)N[C@H]1[C@H](O[C@@H]2c3ccc(c(Cl)c3)Oc3cc4cc(c3O)Oc3ccc(cc3Cl)C[C@H]3NC(=O)[C@H](NC(=N)N)c5ccc(O)c(c5)Oc5cc(O)cc(c5)[C@H](NC3=O)C(=O)N[C@H]4C(=O)N[C@H]3C(=O)N[C@@H]2C(=O)N[C@H](C(=O)O)c2cc(O)cc(O)c2-c2cc3ccc2O)O[C@H](CO)[C@@H](O)[C@@H]1O [Compound 6]	µg/mL	0.125
CN[C@H](CC(C)C)C(=O)N[C@H]1C(=O)N[C@@H](CC(N)=O)C(=O)N[C@H]2C(=O)N[C@H]3C(=O)N[C@H](C(=O)N[C@H](C(=O)O)c4cc(O)cc(O)c4-c4cc3ccc4O)[C@H](O[C@H]3C[C@](C)(N)[C@@H](O)[C@H](C)O3)c3ccc(c(Cl)c3)Oc3cc2cc(c3O[C@@H]2O[C@H](CO)[C@@H](O)[C@H](O)[C@H]2O[C@H]2C[C@](C)(NCc3ccc(-c4ccc(Cl)cc4)cc3)[C@@H](O)[C@H](C)O2)Oc2ccc(cc2Cl)[C@H]1O [ORI, oritavancin, reference compound]	µg/mL	0.0625
CC(=O)N[C@H]1[C@H](O[C@@H]2c3ccc(c(Cl)c3)Oc3cc4cc(c3O)Oc3ccc(cc3Cl)C[C@H]3NC(=O)[C@H](NC(=O)CCC(F)(F)C(F)(F)C(F)(F)C(F)(F)C(F)(F)C(F)(F)C(F)(F)C(F)(F)F)c5ccc(O)c(c5)Oc5cc(O)cc(c5)[C@H](NC3=O)C(=O)N[C@H]4C(=O)N[C@H]3C(=O)N[C@@H]2C(=O)N[C@H](C(=O)O)c2cc(O)cc(O)c2-c2cc3ccc2O)O[C@H](CO)[C@@H](O)[C@@H]1O [Compound 5]	µg/mL	4
CN[C@H](CC(C)C)C(=O)N[C@H]1C(=O)N[C@@H](CC(N)=O)C(=O)N[C@H]2C(=O)N[C@H]3C(=O)N[C@H](C(=O)N[C@H](C(=O)O)c4cc(O)cc(O)c4-c4cc3ccc4O)[C@H](O)c3ccc(c(Cl)c3)Oc3cc2cc(c3O[C@@H]2O[C@H](CO)[C@@H](O)[C@H](O)[C@H]2O[C@H]2C[C@](C)(N)[C@H](O)[C@H](C)O2)Oc2ccc(cc2Cl)[C@H]1O [VAN, vancomycin, reference compound]	µg/mL	0.25

---

Test system: S. aureus
procedureDetails: MIC, broth microdilution
Assay type: cell-based
runParameters: Staphylococcus aureus, MSSA / NEWMAN, read-out: MIC value, S. aureus Newman, MSSA

entrySmiles	unitOfMeasurement	MIC
CC(=O)N[C@H]1[C@H](O[C@@H]2c3ccc(c(Cl)c3)Oc3cc4cc(c3O)Oc3ccc(cc3Cl)C[C@H]3NC(=O)[C@H](NC(=O)c5cc(OCCCSCCNC(=N)N)c(OCCCSCCNC(=N)N)c(OCCCSCCNC(=N)N)c5)c5ccc(O)c(c5)Oc5cc(O)cc(c5)[C@H](NC3=O)C(=O)N[C@H]4C(=O)N[C@H]3C(=O)N[C@@H]2C(=O)N[C@H](C(=O)O)c2cc(O)cc(O)c2-c2cc3ccc2O)O[C@H](CO)[C@@H](O)[C@@H]1O	µg/mL	1

---

procedureDetails: in vitro
runParameters: human
# CC50 annotations
assayMetric: CC50

molecule	reported
CCC(CC)COC(=O)[C@H](C)N[P@](=O)(OC[C@H]1O[C@@](C#N)(c2ccc3c(N)ncnn23)[C@H](O)[C@@H]1O)Oc1ccccc1 [Remdesivir, remdesivir, reference compound]	> 50 µM
O=C(O)CCC(F)(F)C(F)(F)C(F)(F)C(F)(F)C(F)(F)C(F)(F)C(F)(F)C(F)(F)F	~53 µM

---

# MIC annotations
System: S. haemolyticus
procedureDetails: MIC, broth microdilution
Type: cell-based
runParameters: Staphylococcus haemolyticus, S.haemolyticus DALB_R3, mecA; read-out: MIC value
assayMetric: MIC (µg/mL)

compound	unitOfMeasurement	reported
CC(=O)N[C@H]1[C@H](O[C@@H]2c3ccc(c(Cl)c3)Oc3cc4cc(c3O)Oc3ccc(cc3Cl)C[C@H]3NC(=O)[C@H](NC(=O)CCC(F)(F)C(F)(F)C(F)(F)C(F)(F)C(F)(F)C(F)(F)C(F)(F)C(F)(F)F)c5ccc(O)c(c5)Oc5cc(O)cc(c5)[C@H](NC3=O)C(=O)N[C@H]4C(=O)N[C@H]3C(=O)N[C@@H]2C(=O)N[C@H](C(=O)O)c2cc(O)cc(O)c2-c2cc3ccc2O)O[C@H](CO)[C@@H](O)[C@@H]1O	µg/mL	8
CC(=O)N[C@H]1[C@H](O[C@@H]2c3ccc(c(Cl)c3)Oc3cc4cc(c3O)Oc3ccc(cc3Cl)C[C@H]3NC(=O)[C@H](n5cc(COCCCC(F)(F)C(F)(F)C(F)(F)C(F)(F)C(F)(F)C(F)(F)F)nn5)c5ccc(O)c(c5)Oc5cc(O)cc(c5)[C@H](NC3=O)C(=O)N[C@H]4C(=O)N[C@H]3C(=O)N[C@@H]2C(=O)N[C@H](C(=O)O)c2cc(O)cc(O)c2-c2cc3ccc2O)O[C@H](CO)[C@@H](O)[C@@H]1O	µg/mL	8
CC(=O)N[C@H]1[C@H](O[C@@H]2c3ccc(c(Cl)c3)Oc3cc4cc(c3O)Oc3ccc(cc3Cl)C[C@H]3NC(=O)[C@H](NC(=O)c5cc(OCCCSCCNC(=N)N)c(OCCCSCCNC(=N)N)c(OCCCSCCNC(=N)N)c5)c5ccc(O)c(c5)Oc5cc(O)cc(c5)[C@H](NC3=O)C(=O)N[C@H]4C(=O)N[C@H]3C(=O)N[C@@H]2C(=O)N[C@H](C(=O)O)c2cc(O)cc(O)c2-c2cc3ccc2O)O[C@H](CO)[C@@H](O)[C@@H]1O	µg/mL	2
CC(=O)N[C@H]1[C@H](O[C@@H]2c3ccc(c(Cl)c3)Oc3cc4cc(c3O)Oc3ccc(cc3Cl)C[C@H]3NC(=O)[C@H](n5cc(COCCOCCCC(F)(F)C(F)(F)C(F)(F)C(F)(F)F)nn5)c5ccc(O)c(c5)Oc5cc(O)cc(c5)[C@H](NC3=O)C(=O)N[C@H]4C(=O)N[C@H]3C(=O)N[C@@H]2C(=O)N[C@H](C(=O)O)c2cc(O)cc(O)c2-c2cc3ccc2O)O[C@H](CO)[C@@H](O)[C@@H]1O	µg/mL	2
CN[C@H](CC(C)C)C(=O)N[C@H]1C(=O)N[C@@H](CC(N)=O)C(=O)N[C@H]2C(=O)N[C@H]3C(=O)N[C@H](C(=O)N[C@H](C(=O)O)c4cc(O)cc(O)c4-c4cc3ccc4O)[C@H](O)c3ccc(c(Cl)c3)Oc3cc2cc(c3O[C@@H]2O[C@H](CO)[C@@H](O)[C@H](O)[C@H]2O[C@H]2C[C@](C)(N)[C@H](O)[C@H](C)O2)Oc2ccc(cc2Cl)[C@H]1O [VAN, vancomycin, reference compound]	µg/mL	8
CC(=O)N[C@H]1[C@H](O[C@@H]2c3ccc(c(Cl)c3)Oc3cc4cc(c3O)Oc3ccc(cc3Cl)C[C@H]3NC(=O)[C@H](NC(=N)N)c5ccc(O)c(c5)Oc5cc(O)cc(c5)[C@H](NC3=O)C(=O)N[C@H]4C(=O)N[C@H]3C(=O)N[C@@H]2C(=O)N[C@H](C(=O)O)c2cc(O)cc(O)c2-c2cc3ccc2O)O[C@H](CO)[C@@H](O)[C@@H]1O	µg/mL	0.25
